Recorded values, source ChEMBL document CHEMBL1147625.

Target: Human immunodeficiency virus type 1 integrase (Human immunodeficiency virus 1)
Sequence (Q7ZJM1 whole entry): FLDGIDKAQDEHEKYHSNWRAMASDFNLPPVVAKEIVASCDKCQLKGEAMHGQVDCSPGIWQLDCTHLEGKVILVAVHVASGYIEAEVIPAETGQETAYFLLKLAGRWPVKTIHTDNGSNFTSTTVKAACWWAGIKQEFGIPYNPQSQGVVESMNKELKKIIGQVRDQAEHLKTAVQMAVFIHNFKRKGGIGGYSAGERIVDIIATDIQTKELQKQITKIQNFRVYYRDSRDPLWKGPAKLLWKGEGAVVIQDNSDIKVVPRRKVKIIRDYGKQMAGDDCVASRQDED
reported-metric: IC50 (µM)

• [N-]=[N+]=NCc1ccc(/C(O)=C\C(=O)C(=O)O)cc1CN=[N+]=[N-] = 0.26
• CC(CCC(=O)O)C1CC[C@H]2[C@@H]3C(OC(=O)/C=C/c4ccc(O)c(O)c4)CC4CC(OC(=O)/C=C/c5ccc(O)c(O)c5)CC[C@]4(C)[C@H]3CC(OC(=O)/C=C/c3ccc(O)c(O)c3)[C@]12C (stereo partly drawn) = 0.97
• CC1=NN(C(=O)c2ccccc2O)C(=O)/C1=C\c1cccc(O)c1 = 7.4

[1] CC1C=C(NC(=O)C2=CC(NC(=O)C3=CC(NC(=O)c4ccc(C(=O)NC5=CC(C)C(C(=O)NC6=CC(C)C(C(=O)NC7=CC(C)C(C(=O)NCCC(=N)N)=C7)=C6)=C5)nc4)=CC3C)=CC2C)C=C1C(=O)NCCC(=N)N (stereo not drawn)
[2] COC(=O)c1ccc(CC(=O)c2c(C)cc(O)c(C=O)c2O)c(C)c1O
[3] CN(C)Cc1ccc2n1Cc1ccccc1SC2c1ccc(F)cc1 (stereo not drawn)
[4] COc1cc(C)c2c(c1C)OC(=O)c1c(C)c(Cl)c(O)c(C=O)c1O2
*Q* Arrange the 4 compounds by rising IC50, starting with the smallest. In plain terms: list the labels in the order you were asked to.
*A* 1, 4, 2, 3
